meta.source: ChEMBL document CHEMBL3865812

procedure summary: Cell cycle arrest in human A2780 cells assessed as decrease in accumulation of cells at S-phase at 6 uM measured after 48 hrs by propidium iodide staining based FACS analysis
Type: functional
Calls of active or inactive are those of the source. No cut-off for these calls is given here.

{"structure string": "CC(=O)O[C@H]1C[C@]2(C)[C@H]3CC=C4[C@@H]5CC(C)(C)CC[C@]5(C(=O)Nc5cnc6ccccc6c5)CC[C@@]4(C)[C@]3(C)CC[C@H]2C(C)(C)[C@H]1OC(C)=O", "Activity": "Active"}
{"structure string": "CC(=O)O[C@H]1C[C@]2(C)[C@H]3CC=C4[C@@H]5CC(C)(C)CC[C@]5(C(=O)Nc5cccc6ncccc56)CC[C@@]4(C)[C@]3(C)CC[C@H]2C(C)(C)[C@H]1OC(C)=O", "Activity": "Active"}
{"structure string": "CC(=O)O[C@H]1C[C@]2(C)[C@H]3CC=C4[C@@H]5CC(C)(C)CC[C@]5(C(=O)Nc5ccc6ncccc6c5)CC[C@@]4(C)[C@]3(C)CC[C@H]2C(C)(C)[C@H]1OC(C)=O", "Activity": "Active"}
{"structure string": "CC(=O)O[C@H]1C[C@]2(C)[C@H]3CC=C4[C@@H]5CC(C)(C)CC[C@]5(C(=O)Nc5ccnc6ccccc56)CC[C@@]4(C)[C@]3(C)CC[C@H]2C(C)(C)[C@H]1OC(C)=O", "Activity": "Active"}
{"structure string": "CC(=O)O[C@H]1C[C@]2(C)[C@H]3CC=C4[C@@H]5CC(C)(C)CC[C@]5(C(=O)Nc5cncc6ccccc56)CC[C@@]4(C)[C@]3(C)CC[C@H]2C(C)(C)[C@H]1OC(C)=O", "Activity": "Active"}

###

procedure summary: Cytotoxicity against human A2780 cells measured after 96 hrs by SRB assay
Assay type: functional, cell-based
setup conditions: A2780, 96 h
outcome measure: EC50 (µM)

{"structure string": "CC(=O)O[C@H]1C[C@]2(C)[C@H]3CC=C4[C@@H]5[C@@H](C)[C@H](C)CC[C@]5(C(=O)Nc5ccc6cccnc6c5)CC[C@@]4(C)[C@]3(C)CC[C@H]2C(C)(C)[C@H]1OC(C)=O", "outcome measure": "EC50", "recorded value": 1.8}
{"structure string": "CC(=O)O[C@H]1CC[C@]2(C)[C@H]3CC=C4[C@@H]5[C@@H](C)[C@H](C)CC[C@]5(C(=O)Nc5cccc6ncccc56)CC[C@@]4(C)[C@]3(C)CC[C@H]2C1(C)C", "outcome measure": "EC50", "recorded value": 4.4}
{"structure string": "CC(=O)O[C@H]1C[C@]2(C)[C@H]3CC=C4[C@@H]5[C@@H](C)[C@H](C)CC[C@]5(C(=O)Nc5ccc6ncccc6c5)CC[C@@]4(C)[C@]3(C)CC[C@H]2C(C)(C)[C@H]1OC(C)=O", "outcome measure": "EC50", "recorded value": 4.2}
{"structure string": "C[C@H]1[C@H](C)CC[C@]2(C(=O)O)CC[C@]3(C)C(=CC[C@@H]4[C@@]5(C)C[C@H](O)[C@H](O)C(C)(C)[C@@H]5CC[C@]43C)[C@H]12", "outcome measure": "EC50", "recorded value": 24.9}
{"structure string": "CC(=O)O[C@H]1C[C@]2(C)[C@H]3CC=C4[C@@H]5CC(C)(C)CC[C@]5(C(=O)Nc5ccnc6ccccc56)CC[C@@]4(C)[C@]3(C)CC[C@H]2C(C)(C)[C@H]1OC(C)=O", "outcome measure": "EC50", "recorded value": 2}

###

procedure summary: Cytotoxicity against human A2780 cells measured after 96 hrs by SRB assay
Format: functional, cell-based
setup conditions: A2780, 96 h
pEC50: −log10 of the molar value.
Each item that follows carries a reported pEC50.
outcome measure: pEC50

{"structure string": "CC(=O)O[C@H]1C[C@]2(C)[C@H]3CC=C4[C@@H]5CC(C)(C)CC[C@]5(C(=O)Nc5ccc6cccnc6c5)CC[C@@]4(C)[C@]3(C)CC[C@H]2C(C)(C)[C@H]1OC(C)=O", "recorded value": 6.00}
{"structure string": "CC(=O)O[C@H]1C[C@]2(C)[C@H]3CC=C4[C@@H]5[C@@H](C)[C@H](C)CC[C@]5(C(=O)Nc5ccnc6ccccc56)CC[C@@]4(C)[C@]3(C)CC[C@H]2C(C)(C)[C@H]1OC(C)=O", "recorded value": 5.46}
{"structure string": "CC(=O)O[C@H]1C[C@]2(C)[C@H]3CC=C4[C@@H]5CC(C)(C)CC[C@]5(C(=O)Nc5ccc6ncccc6c5)CC[C@@]4(C)[C@]3(C)CC[C@H]2C(C)(C)[C@H]1OC(C)=O", "recorded value": 5.70}

###

procedure summary: Cytotoxicity against mouse NIH/3T3 cells measured after 96 hrs by SRB assay
Type: toxicity, NIH3T3
Some compounds, each annotated with its measured EC50 at 96 h.
outcome measure: EC50 at 96 h

{"structure string": "CC(=O)O[C@H]1C[C@]2(C)[C@H]3CC=C4[C@@H]5CC(C)(C)CC[C@]5(C(=O)O)CC[C@@]4(C)[C@]3(C)CC[C@H]2C(C)(C)[C@H]1OC(C)=O", "outcome measure": "EC50 at 96 h", "recorded value": "> 30 µM"}
{"structure string": "CC1(C)CC[C@]2(C(=O)O)CC[C@]3(C)C(=CC[C@@H]4[C@@]5(C)C[C@H](O)[C@H](O)C(C)(C)[C@@H]5CC[C@]43C)[C@@H]2C1", "outcome measure": "EC50 at 96 h", "recorded value": "> 30 µM"}
{"structure string": "CC(=O)O[C@H]1C[C@]2(C)[C@H]3CC=C4[C@@H]5CC(C)(C)CC[C@]5(C(=O)Nc5cccc6cccnc56)CC[C@@]4(C)[C@]3(C)CC[C@H]2C(C)(C)[C@H]1OC(C)=O", "outcome measure": "EC50 at 96 h", "recorded value": "> 30 µM"}
{"structure string": "CC(=O)O[C@H]1C[C@]2(C)[C@H]3CC=C4[C@@H]5[C@@H](C)[C@H](C)CC[C@]5(C(=O)Nc5cccc6ncccc56)CC[C@@]4(C)[C@]3(C)CC[C@H]2C(C)(C)[C@H]1OC(C)=O", "outcome measure": "EC50 at 96 h", "recorded value": "> 60 µM"}
{"structure string": "CC(=O)O[C@H]1C[C@]2(C)[C@H]3CC=C4[C@@H]5[C@@H](C)[C@H](C)CC[C@]5(C(=O)Nc5cccc6cccnc56)CC[C@@]4(C)[C@]3(C)CC[C@H]2C(C)(C)[C@H]1OC(C)=O", "outcome measure": "EC50 at 96 h", "recorded value": "> 30 µM"}
